Values compiled from PubChem BioAssay.

- TEST: AML differentiation inducers, ER-HoxA9 marrow cells – cell-based, GFP/MAC1 double positive, flow cytometry, validation set, primary screen (AID 588685);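 note: compound exposure lasts four days before antibody staining and flow analysis; 0% = DMSO wells and 100% = 5 µM fulvestrant positive control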
- MEASUREMENT CONTEXT: hits give high values, normalized: vehicle 0, fulvestrant 100
The following compounds are shown together with reported differentiation response values.
METRIC NAME: differentiation response (%)

# COMPOUND, METRIC NAME, RECORDED MEASUREMENT
measured = [
    ("CNC(=O)Oc1ccc2c(c1)[C@]1(C)CCN(C)[C@@H]1N2C", "differentiation response", -4.99),
    ("Cc1ncc(CN2CCC(CO)(CCc3ccccc3)CC2)s1", "differentiation response", -1.65),
    ("O=C1c2cccc3cccc(c23)C(=O)N1c1ccccn1", "differentiation response", -1.71),
    ("CC(C)C[C@H]1C(=O)N2CCC[C@H]2[C@]2(O)O[C@](NC(=O)[C@@H]3C=C4c5cccc6[nH]c(Br)c(c56)CC4N(C)C3)(C(C)C)C(=O)N12 (stereo not given in full)", "differentiation response", 1.28),
    ("NC(=O)c1cccnc1", "differentiation response", -1.64),
    ("CSCCC1NC2(C(=O)Nc3ccc(Cl)cc32)[C@@H]2C(=O)N(C3CCCC3)C(=O)[C@H]12 (stereo not given in full)", "differentiation response", 1.28),
    ("COc1ccc(-c2coc3c(CN4CCOCC4)c(O)ccc3c2=O)cc1", "differentiation response", -3.11),
    ("CC(C)CCNC(=O)[C@H](CC(C)C)NC(=O)[C@H]1O[C@@H]1C(=O)O", "differentiation response", -1.71),
    ("CCOC(=O)C1=C(C)NC(C)=C(C(=O)OC)C1c1cccc([N+](=O)[O-])c1 (stereo not given)", "differentiation response", -1.64),
    ("CC(C)Oc1ccc2c(=O)c(-c3ccccc3)coc2c1", "differentiation response", -5.73),
]

* * *

- TEST: TOR pathway reporter MEP2-GFP, retest of hits – S. cerevisiae, flow cytometry GFP, cherry picks, confirmation (AID 2272);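 note: ratio of well signal to plate DMSO mean so 100% equals DMSO level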
- MEASUREMENT CONTEXT: S. cerevisiae MEP2-GFP strain, 3 h, at 10 µM, hits give high values

# COMPOUND, GFP response vs DMSO [%]
records = [
    ("O=C(O)Cc1ccc(-c2ccccc2)cc1", 102),
    ("Cc1cc(C)c(C(=O)Cn2cnc3cc([N+](=O)[O-])ccc3c2=O)cc1C", 99.3),
    ("Cc1ccc(SC(CC(=O)c2ccc(C(C)(C)C)cc2)C(=O)O)cc1 (centres undefined)", 94.4),
    ("COCCN1C(=O)/C(=C/c2ccc(N3CCCC3)cc2C)SC1=S", 143),
    ("O=C(C#Cc1cccc([N+](=O)[O-])c1)c1ccccc1", 133),
    ("CC(=O)[C@@]1(O)CC[C@H]2[C@@H]3CCC4=CC(=O)CC[C@]4(C)[C@H]3[C@@H](O)C[C@@]21C", 102),
    ("COc1ccc(C2=CC(=O)C=CC2=O)cc1", 117),
    ("C#C[C@]1(O)CC[C@H]2[C@@H]3CCC4=CC(=O)CC[C@@H]4[C@H]3CC[C@@]21CC", 95.7),
    ("CC(=O)CSc1ncnc2c1cnn2-c1ccccc1", 99),
    ("C1COC(NC(C2CC2)C2CC2)=N1", 96.2),
    ("CC(=O)Nc1ccccc1O", 100),
    ("C[C@]12CC[C@@H]3c4ccc(O)cc4C(=O)C[C@H]3[C@@H]1CC[C@@H]2O", 95.7),
    ("O=C(NCCN1CCN(c2ccccc2)CC1)c1cccc(Br)c1", 102),
    ("CN(c1ccccc1)c1ccc(/C=c2\\s/c(=C(/C#N)C(=O)C(C)(C)C)n(Cc3ccco3)c2=O)cc1", 309),
    ("O=[N+]([O-])c1cccc2cn[nH]c12", 106),
    ("CC(=O)c1ccc(CCCCCCCCCC(=O)O)s1", 100),
    ("CCOC(=O)C(Cc1cc(C(C)=O)ccc1OC(C)C)C(=O)OCC", 99.5),
    ("CNCCC(Oc1ccc(C(F)(F)F)cc1)c1ccccc1 (centres undefined)", 102),
    ("O=C(/C=C/c1ccccc1)c1ccccc1", 104),
    ("O=c1[nH]cc(F)c(=O)[nH]1", 101),
    ("CC(=O)[C@H]1CC[C@H]2[C@@H]3CCC4=CC(=O)CC[C@]4(C)[C@H]3CC[C@]12C", 99.5),
    ("Oc1ccc2ccccc2c1/C=N/Nc1nnc(-c2ncc[nH]2)c2ccccc12", 137),
    ("CCOc1nnc(C)c2c(C)n(-c3cccc(OC)c3)nc12", 102),
    ("CN(C)CCN(Cc1ccccc1)c1ccccn1", 100),
    ("CS(=O)(=O)N1N=C(c2ccccc2)CC1c1ccc2c(c1)OCO2 (centres undefined)", 1140),
    ("CC(C)CC(=O)Nc1ccc2oc(-c3ccncc3)nc2c1", 97.8),
    ("Cn1c(=O)c(C(=O)NCCO)c(O)c2ccccc21", 96.2),
    ("COc1cccc(/C=C/C(=O)c2c(O)cc(C)oc2=O)c1O", 107),
    ("COc1ccc(C(=O)NCC2OCCc3ccccc32)cc1 (centres undefined)", 102),
]
